// data source = patent US8541617B2

- Tested on: Summer wheat
- Experimental details: Example C: Herbicidal post-emergence action, use of safeners (crop plant damage)
- Type: in vivo
- Condition summary: 28 days after application; 12.5 g of a.i./ha; no safener
Hi there, I'd appreciate the recorded Summer wheat observed (%) for every entry that follows.
One number for each entry, in %.

>>> reading("CCOC1CCCC2(C1)NC(=O)C(c1c(Cl)cc(C)cc1C1CC1)=C2O (stereo not shown)")
20
>>> reading("COC1CCC2(CC1)NC(=O)C(c1c(C)cc(C)cc1C1CC1)=C2O (stereo not shown)")
30

Please supply Summer wheat observed (%) for each of the following items, keeping them in order.
1. CCCCOC1CCCC2(C1)NC(=O)C(c1c(Cl)cc(C)cc1C1CC1)=C2O (stereo not shown)
2. CCOC(=O)OC1=C(c2c(C)cc(C)cc2C2CC2)C(=O)NC12CCC(OC)CC2 (single isomer, unassigned)

25
10

###

I'd be grateful if you could share measured chromatographic logP for these entries.
- Experimental details: logP determination by HPLC on a reverse-phase column (C 18), EEC Directive 79/831 Annex V.A8
- Type: physicochemical
- Condition summary: reverse-phase HPLC column (C 18); HPLC reverse-phase C 18, 43° C., acidic range (pH 2.3), 0.1% aqueous phosphoric acid/acetonitrile
One number for each entry.

>>> reading("CCc1cc(C)cc(C2CC2)c1C1=C(OC(=O)C(C)(C)C)[C@]2(CC[C@H](OC)CC2)OC1=O")
5.03
>>> reading("CCc1cc(C)cc(C2CC2)c1C1=C(O)[C@]2(CC[C@@H](OC)CC2)OC1=O")
3.07
>>> reading("CCc1cc(C)cc(C2CC2)c1C1=C(O)[C@]2(CC[C@H](OC)CC2)OC1=O")
2.81

Now, please, on to the next molecule.
Returns the measured chromatographic logP for the input molecule. Input: CCOC(=O)C1(OC(=O)Cc2c(CC)cc(C)cc2C2CC2)CCC(OC)CC1 (stereo not shown)
5.15

###

- System: Summer barley
- Experimental details: Example C: Herbicidal post-emergence action, use of safeners (crop plant damage)
- Format: in vivo
- Condition summary: 10 days after application; 50 g of a.i./ha; no safener
For each record, write down the corresponding Summer barley observed (%).
Answers are plain numbers, in %.

Worked set:
>>> reading("CCc1cc(C)cc(C2CC2)c1C1=C(O)C2CCCN2C1=O (stereo not shown)")
25
>>> reading("CCOC(=O)OC1=C(c2c(C)cc(C)cc2C2CC2)C(=O)NC12CCC(OC)CC2 (single isomer, unassigned)")
60
>>> reading("COC1CCC2(CC1)NC(=O)C(c1c(C)cc(C)cc1C1CC1)=C2O (stereo not shown)")
60

Moving on to another compound below.
Hi! What's the reported Summer barley observed (%) for CCOC(=O)OC1=C(c2c(C3CC3)cc(C)cc2C2CC2)C(=O)NC1(C)C on Summer barley?
30

###

- Tested on: Summer barley
- Experimental details: Example C: Herbicidal post-emergence action, use of safeners (crop plant damage)
- Assay type: in vivo
- Condition summary: 10 days after application; 12.5 g of a.i./ha; no safener
- Procedure: Herbicidal Post-Emergence Action Seeds of monocotylos and dicotylos weed and crop plants are placed into sandy lawn in wood fibre pots or in plastic pots, covered with soil and cultivated in a greenhouse, during the vegetation period also outdoors outside of the greenhouse, under good growth conditions. Two to three weeks after sowing, the test plants are treated at the one- to three-leaf stage. […]
Property name: Summer barley observed (%)
# answer = value followed by unit

>>> reading("CCOC(=O)OC1=C(c2c(C3CC3)cc(C)cc2C2CC2)C(=O)NC1(C)C [Example I-1-c-13]")
"5%"
>>> reading("CCOC(=O)OC1=C(c2c(C)cc(C)cc2C2CC2)C(=O)NC12CCC(OC)CC2 (single isomer, unassigned) [Example I-1-c-7]")
"10%"
>>> reading("CCc1cc(C)cc(C2CC2)c1C1=C(O)C2CCCN2C1=O (stereo not shown) [Example I-1-a-18]")
"10%"

Let us examine a further case.
Entry under review: COC1CCC2(CC1)NC(=O)C(c1c(C)cc(C)cc1C1CC1)=C2O (stereo not shown) [Example I-1-a-7] . Reported Summer barley observed (%)?
10%
